Data origin: PubChem BioAssay

Below is a list of entries, each paired with its recorded composite z-score value.
System: Neuregulin-1 EGF-like domain
procedure_text: binders of neuregulin-1 EGF-like domain, primary screen, biochemical, small-molecule microarray, 635 nm fluorescence (AID 1081);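 further: binding of the protein to compounds printed on small-molecule microarray slides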
protocol_conditions: small-molecule microarray binding, higher = more signal
Could you respond with only the numeric value?

| compound | composite z-score |
| --- | --- |
| CN(C)CCCC[C@@H]1NC(=O)[C@H]2C[C@@H](C(=O)NCc3ccc(F)cc3)[C@@H](c3ccc(O)cc3)N2C1=O | 1.25 |
| COC(=O)c1c(CC[C@@H](CO)NC(=O)N[C@@H](Cc2ccccc2)Cn2cc(-c3cncn3C)nn2)oc(C(C)=O)c1C(=O)OC | 1.29 |

Lookup result for COC(=O)[C@@]1(Cc2ccc(OC)cc2)[C@H]2c3cc(C(=O)N(C)C)n(Cc4ccsc4Br)c3C[C@H]2CN1C(=O)c1ccccc1 ; measured composite z-score: 0.856

Value of measured composite z-score for the entry C[C@]1(C(=O)NCC(F)(F)F)c2ccccc2C(=O)N(Cc2ccc(OC(F)(F)F)cc2)[C@H]1c1ccc(CO)cc1 : 0.531

Item: CN1C(=O)C2C=CC(C(O)c3ccc(-c4ccccc4)s3)N(Nc3ccccc3)C2C1=O (configuration not stated) | composite z-score: 1.09

What the record says about [N-]=[N+]=NCc1ccccc1[C@@H]1OC(c2ccc(OCCCO)cc2)=N[C@]1(Cc1ccccc1)C(=O)NCc1ccccc1 : composite z-score is 0.744

Memo: NC(=O)NCC#Cc1ccc2c(c1)[C@]1(C(=O)N2)[C@H](C(=O)Nc2nc3ccccc3s2)[C@H]2C(=O)O[C@H](c3ccccc3)[C@H](c3ccccc3)N2[C@@H]1c1ccc(OCCO)cc1 , reported composite z-score: -0.895

----------
Tested on: Noggin (protein binding on small-molecule microarray)
procedure_text: Noggin binders on small-molecule microarray, primary screen, biochemical, 635/667 nm fluorescence (AID 1095);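 further: score merges 667 nm feature fluorescence with signal to noise over triplicate slides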
protocol_conditions: 635 nm fluorescence, higher = more signal
Label y when composite z-score is at or above 0.2; otherwise label n.

Form field: composite z-score at least 0.2? Entry: COc1ccccc1CN1C(=O)c2ccccc2[C@@H](C(=O)NCCCN(C)C)[C@@H]1c1ccc(CO)cc1
n

# check: composite z-score of CC(C)CNC(=O)[C@@H]1c2ccccc2C(=O)N(C(C)C)[C@H]1c1ccc(CO)cc1 is greater than or equal to 0.2
n

Tell me whether composite z-score is at least 0.2 here: COC(=O)[C@@]1(Cc2ccc(OC)cc2)[C@@H]2[C@@H](CC(=O)[C@H]2CC(=O)C(=O)N2CCCC2)CN1C(=O)c1ccccc1
n

----------
System: Inhibin beta A chain (activin A)
procedure_text: INHBA (activin A) binders on microarrays, primary screen, biochemical, small-molecule microarray, 635 nm fluorescence scan (AID 1107);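 further: mouse activin A protein probed at 4.33 µg/mL on printed slides; score merges bound-protein fluorescence near 667 nm with spot signal-to-noise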
protocol_conditions: small-molecule microarray binding, higher = more signal
Listed below: composite z-score values for each entry.
// no unit string in output, number only

Recorded composite z-score, per entry:
| compound | composite z-score |
| --- | --- |
| COCCOC(=O)N1C(=O)[C@@]2(c3cc(C#Cc4ccc(OC)cc4)ccc31)[C@H](c1ccc(OCCO)cc1)N1[C@H](c3ccccc3)[C@H](c3ccccc3)OC(=O)[C@H]1[C@@H]2C(=O)N1CCCCCCC1 | 1.65 |
| CC(C)=CCN(C(=O)C#Cc1ccccc1)[C@H](CO)c1ccccc1 | 0.661 |
| [N-]=[N+]=NCc1ccccc1[C@@H]1OC(c2ccc(OCCCO)cc2)=N[C@]1(Cc1ccccc1)C(=O)NCc1ccccc1 | 0.656 |
| CN1C=C(C(=O)OCCS(C)(=O)=O)C(C(=O)OCCS(C)(=O)=O)=CC(CCCO)=CC1c1ccc(CN2CCCC2)cc1 (stereo not drawn) | 0.969 |
| COc1ccc(NN2C(C(O)c3ccc(OC)cc3)C=CC3C(=O)N(C4CCCCC4)C(=O)C32)cc1 (stereo not drawn) | 1.2 |

# compound CCCC=C(CCC)[C@@H](NC(=O)c1ccccc1)c1ccc(C(=O)OC)cc1 ; its composite z-score = 0.613

The measured composite z-score associated with COC(=O)[C@@]1(Cc2ccc(F)cc2)[C@H]2c3cc(C(=O)N(C)C)n(CCN4CCOCC4)c3C[C@H]2CN1C(=O)c1ccccc1 reads 0.84

Reported composite z-score ( C=CCN1C(=O)[C@]2(O[C@H](CCO)[C@@H]([Si](C)(C)c3ccc(OC)cc3)[C@@H]2C)c2ccccc21 ) = 0.456
